- System: SK-MEL-2
- methodDescription: NCI tumour cell line growth inhibition, 48 h
Calls of active or inactive are those of the source. Cut-off read from the data, not from the text of the source: active = GI50 up to about 1.1 µM and inactive = higher.
Reported GI50 values for a set of compounds
outcomeMeasure: GI50

- compound: "CC1(C)CCCCCC(C)(CCCCCCCCCCCO)C1=O (centres undefined)"
  valueMeasured: "16.2 µM (inactive)"
- compound: "O=C1NC(=O)C(C(=O)C(=O)Nc2cccc(C(F)(F)F)c2)C(=O)N1"
  valueMeasured: "> 100 µM (inactive)"
- compound: "CC(C)c1cc(C(C)C)c(S(=O)(=O)NN)c(C(C)C)c1"
  valueMeasured: "> 100 µM (inactive)"
- compound: "COC(=O)C(Cc1ccccc1)NC(=O)c1ccc(CNC(=S)NCc2cccc(CNC(=S)NCc3ccccc3)c2)cc1 (centres undefined)"
  valueMeasured: "> 33.3 µM (inactive)"
